Where these numbers come from: patent US7855211B2

# tgt: Pim-1 (Homo sapiens)
# Sequence (P11309 whole entry): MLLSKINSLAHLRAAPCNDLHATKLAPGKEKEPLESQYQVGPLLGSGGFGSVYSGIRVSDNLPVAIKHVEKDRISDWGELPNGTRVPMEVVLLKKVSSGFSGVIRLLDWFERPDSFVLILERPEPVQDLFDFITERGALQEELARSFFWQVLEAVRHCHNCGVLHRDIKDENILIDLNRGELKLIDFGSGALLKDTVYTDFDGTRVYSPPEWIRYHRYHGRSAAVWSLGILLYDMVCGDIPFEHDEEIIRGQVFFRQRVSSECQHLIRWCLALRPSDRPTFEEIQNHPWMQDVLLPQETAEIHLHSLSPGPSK
measurementKind: IC50 (nM)
Provide the reading as a plain figure in nM.

Q: Recorded IC50 of CCN1CCC(Cc2ccc(Nc3ncc(F)c(-c4cc(F)c5nc(C)n(C(C)C)c5c4)n3)nc2C)CC1 [Example 25, methanesulfonate] , please.
Ans: 3

----------
# measurementNotes: Plasma and brain exposure in non-tumour bearing male Sprague Dawley rats
# Format: in vivo, rat
# setupConditions: Sprague Dawley, rat, brain; male SD rats, single oral dose 30 mg/kg, 2 h; read-out: Brain concentration (Mean)
measurementKind: concentration at 2 h (ng/g)
Provide the reading as a plain figure in ng/g.

Q: Recorded concentration at 2 h of CCN1CCN(Cc2ccc(Nc3ncc(F)c(-c4cc(F)c5nc(C)n(C(C)C)c5c4)n3)nc2)CC1.CS(=O)(=O)O [Example 16, methanesulfonate] , please.
Ans: 758

----------
# measurementNotes: Plasma and brain exposure in non-tumour bearing male Sprague Dawley rats
# Type: in vivo, rat
# setupConditions: Sprague Dawley, rat, plasma; male SD rats, single oral dose 30 mg/kg, 4 h; read-out: Plasma concentration (Mean)
measurementKind: concentration at 4 h (ng/mL)
Provide the reading as a plain figure in ng/mL.

Q: Recorded concentration at 4 h of CCN1CCN(Cc2ccc(Nc3ncc(F)c(-c4cc(F)c5nc(C)n(C(C)C)c5c4)n3)nc2)CC1.CS(=O)(=O)O [Example 16, methanesulfonate] , please.
Ans: 1500

----------
# measurementNotes: Plasma and brain exposure in non-tumour bearing male Sprague Dawley rats
# Assay type: in vivo, rat
# setupConditions: Sprague Dawley, rat; male SD rats, 30 mg/kg oral, plasma and brain; read-out: Maximal concentrations (Tmax)
measurementKind: Tmax
Write the quantity with the unit trailing the number.

Q: Recorded Tmax of CCN1CCN(Cc2ccc(Nc3ncc(F)c(-c4cc(F)c5nc(C)n(C(C)C)c5c4)n3)nc2)CC1.CS(=O)(=O)O [Example 16] , please.
Ans: 4 h
